Value source: PubChem BioAssay (NCATS)

Assay: P-glycoprotein substrates identified in KB-8-5-11 adenocarcinoma cell line, qHTS therapeutic library screen (AID 1346987); note: nearly all actives have a fitted effect of over 65% in size
Details: KB-8-5-11 (P-gp overexpressing) viability, CellTiter-Glo, 72 h; series mostly up to 44.5 µM
Results filed as inconclusive are left out. Active and inactive are the calls of the source. Calls come from the whole dose curve; as a rule, active = well fitted inhibition curve with a large enough effect; inconclusive = small, poorly fitted or top-dose-only effect; inactive = flat fitted curve, though single readings scatter.
Answer with one of the outcomes active, inactive

Request: Given Cc1[nH]c2ccccc2c1CCNCc1ccc(/C=C/C(=O)NO)cc1 , state the outcome it received in this test.
Result: active

Request: Per the records of this test, what outcome belongs to O=S(=O)(N[C@H]1CCCC[C@@H]1N1CCOCC1)c1ccc(Cl)cc1 ?
Result: inactive

Request: Record request — test call for COc1ccc(NC(=O)c2ccc(-c3ccc(-c4nnc(C)o4)cc3C)cc2)cc1N1CCN(C)CC1
Result: inactive

Request: Short answer needed: outcome of this test for CO[C@H]1O[C@@H]2O[C@@]3(C)CCC4[C@H](C)CCC([C@H]1C)[C@]42OO3 (stereo not given in full) ?
Result: inactive

Request: Per the assay record, what outcome was assigned to COc1ccccc1N1CCN(CC(C(=O)NC(C)(C)C)c2ccccc2)CC1 (stereo not given) ?
Result: inactive

Request: Identify the outcome logged in this assay for the molecule shown: CC(=O)O[C@H]1[C@@]2(O)C[C@H](C)[C@H](OC(=O)c3ccccc3)[C@@H]2[C@@H](OC(=O)CO)[C@]2(OC(C)=O)C[C@H]3C(=O)C(C)(C)C[C@@H]3[C@@]1(C)[C@H]2OC(C)=O
Result: inactive

Request: Please share the test call associated with O=C(O)CCc1nccc2c1[nH]c1ccccc12 .
Result: inactive

Request: Short answer needed: outcome of this test for C=C1C(=O)O[C@@H]2/C=C(\CO)CC/C=C(\CO)[C@H](OC(C)=O)C(OC(=O)C(C)CC)C12 (stereo not given in full) ?
Result: inactive

Request: Lab log entry: CC(C)(C)NC(=O)[C@H]1CC[C@H]2[C@@H]3CC[C@H]4NC(=O)CC[C@]4(C)[C@H]3CC[C@]12C — outcome as called in the assay?
Result: inactive

Request: Test call for this molecule, please: COc1ccc(C2(CNC(=O)c3ccc(NC(=O)c4ccco4)cc3)CCOCC2)cc1
Result: inactive

Request: # fetch the recorded call for OC1(CN2CCC(COc3noc4cccc(O[C@@H]5CCOC5)c34)CC2)CCOCC1 here
Result: inactive

Request: Which outcome was entered for the molecule CC(C)C[C@@H](C(=O)N[C@@H](Cc1ccc(OCc2ccccc2)cc1)C(=O)NC(C)(C)C)N(C)Cc1ccc(C(C)(C)C)cc1 in this test?
Result: inactive

Request: Short answer needed: outcome of this test for CCCCCCCCCCCCCCCC(=O)OC[C@H](O)[C@H]1OC(=O)C(O)=C1O ?
Result: inactive

Request: For Fc1ccc2[nH]ccc2c1-c1nc(N2CCOCC2)c2sc(CN3CCN(CC4CC4)CC3)cc2n1 , what call appears in the results of this test?
Result: active

Request: // outcome(item) with item = CCC(CC)C(c1ccc(Nc2nc3ccccc3s2)cc1)n1cncn1 (stereo not given)
Result: active

Request: Look up the recorded call for COc1cc2c(cc1OCCCN1CCCC1)N=C(N)C21CCC1 in this test.
Result: inactive

Request: Look up the recorded call for Cc1cc2ncc(C(=O)NCC(C)(C)NCC(=O)N3CCC[C@H]3C#N)cn2n1 in this test.
Result: inactive

Request: Kindly provide the recorded test outcome for the following molecule: C/C=C(/C)C(=O)OC1C=C2C3C(C)C(C)C(OC(=O)C(C)C(C)O)CC3(C)CCC2(C)C2(C)CC(OC(C)=O)C3C(C)(C)C(O)C(=O)CC3(C)C12 (stereo not given)
Result: inactive

Request: Write down the call the test reported for this molecule. Item: Cn1ncc(Cl)c1-c1cc(C(=O)N[C@H](CN)Cc2cccc(F)c2)sc1Cl
Result: active

Request: Any idea what this test logged for Cc1cc(NC(=O)NCCN2CCC(O)(Cc3ccccc3)CC2)c2ccccc2n1 ?
Result: inactive
